Each entry below carries its recorded growth.
Test system: SK-MEL-5 melanoma
Assay: NCI-60 one-dose screen, 48 h (100 = growth as untreated, 0 = no growth, -100 = all killed)
Conditions: 10 µM unless noted
This is part of a sample that, as a whole, favours compounds with a hit. Of some 83,000 tested, about 20% had one in any assay.

MOLECULE | growth / %
COc1ccc(S(=O)(=O)NCCNc2nccc(-c3c(-c4cccc(N)c4)nc4sccn34)n2)cc1 | 98
COc1ccccc1/C=C(/C(=O)c1ccccc1)c1ccccc1 | 99.1
CN1C2CCC1/C(=C\c1ccc(Cl)cc1)C1=C2[C@@H](c2ccc(Cl)cc2)C(C#N)=C(N)O1 (some centres undefined) | 88.9
CC1(C)CC(=O)C(c2c(-c3ccccc3)[nH]c3[nH]c(=S)[nH]c(=O)c23)=C(O)C1 | 108
O=S(=O)(Nc1ccc(F)c(Cl)c1)c1ccc(-c2cnc(C3CC3)o2)cc1 | 6.59
C=C1CCC2C3(C)COC(c4ccc(OC)cc4Br)OC3CCC2(C)C1/C=C/C1=CCOC1=O (centres undefined) | 45.3
CN1CCN(Cc2ccc(NC(=O)c3[nH]ncc3Nc3ncnc4sccc34)cc2)CC1 | -5.05
CCN(CC)c1ccc(/C=C/C2=[N+](C)c3ccccc3C2(C)C)cc1 | -71.3
COc1cc(C2CC(=O)c3c(C)nn(-c4nc5ccccc5[nH]4)c3C2)cc(OC)c1OC (centres undefined) | 87.1

* * *

System: COLO 205 colon
Assay: NCI-60 one-dose screen, 48 h (100 = growth as untreated, 0 = no growth, -100 = all killed)
Conditions: 10 µM unless noted
Compounds without any hit were thinned out: in the full panel of roughly 83,000, 20% have a hit.
EXPERIMENTAL ENDPOINT: growth (%)

COMPOUND | EXPERIMENTAL TARGET | EXPERIMENTAL ENDPOINT | READOUT VALUE
COc1ccc(C(=O)/C=C/c2c[n+](=O)c3ccc(F)cc3n2[O-])cc1 | COLO 205 colon | growth | 127
Cc1cc(Nc2nc(N3CCN(C)CC3)nc3ccccc23)n[nH]1 | COLO 205 colon | growth | 58
COc1cccc(/C=C2/C(=O)N(Cc3ccco3)SC2=S)c1OC | COLO 205 colon | growth | 111
CC1=C(C)C(=O)OC([C@](C)(O)[C@]2(O)CC[C@@]3(O)[C@@H]4C[C@H]5O[C@]56CC=CC(=O)[C@]6(C)[C@H]4CC[C@]23COC(=O)c2ccc(C)o2)C1 (stereo partly specified) | COLO 205 colon | growth | -72.1
O=[N+]([O-])c1cccc(-c2nc3sccn3c2-c2ccnc(NCCNS(=O)(=O)c3ccc(C(F)(F)F)cc3)n2)c1 | COLO 205 colon | growth | 37.2
CCCCCCNC(=O)Oc1ccc(/C(=C(\C)c2ccccc2)c2ccc(OCCN(CC)CC)cc2)cc1 | COLO 205 colon | growth | -4.77
CNC(=S)N/N=C/CSC/C=N/NC(=S)NC | COLO 205 colon | growth | 39.1
CC/C=C\C[C@H](O)C/C=C1/C(=O)C=C[C@@H]1C/C=C\CCCC(=O)NC | COLO 205 colon | growth | -25.2
CC[C@@H](C)OC(=O)c1nn(C(C)=O)c2ccccc12 | COLO 205 colon | growth | 108
CCCCCCCCCCCCCCCCCCSC1=CC(=O)C(OC)=C(OC)C1=O | COLO 205 colon | growth | 111
Oc1cccc(Nc2nccc(-c3ccc4ccccc4c3)n2)c1 | COLO 205 colon | growth | 84.7
CNc1nc(C)c(-c2nc(Nc3cccc(S(N)(=O)=O)c3)ncc2F)s1 | COLO 205 colon | growth | -66.1
O=C1c2cccnc2C(=O)c2c1c(C(=O)OCCN1CCCCC1)c1ccccn21 | COLO 205 colon | growth | -70.3
C/C(Cc1ccc(Cl)cc1)=C(\c1ccc(OCCN2CCCCCC2)cc1)c1ccc(OC(=O)C2CCCCC2)cc1 | COLO 205 colon | growth | -21.8
Nc1ccc2c(c1)C(=O)NC2=O | COLO 205 colon | growth | 106
CCCCCCCCCCCCCCCCCCNC(=O)[C@H]1CSC(c2ccc(F)c(OC)c2)N1 (stereo partly specified) | COLO 205 colon | growth | 20.1
COCCOc1ccc(-c2nc3ccc(-c4nc5ccc(N6CCN(C)CC6)cc5[nH]4)cc3[nH]2)cc1 | COLO 205 colon | growth | -10.9
Nc1cc(O)cc2cccnc12 | COLO 205 colon | growth | 113
COc1ccc2nc3cc(Cl)ccc3c(N3CCN(c4ccnc(N5CCOCC5)n4)CC3)c2c1 | COLO 205 colon | growth | 31.1
COc1ccc(-c2cc(NC(=O)Nc3ccc(O)cc3)no2)cc1 | COLO 205 colon | growth | 105
COc1ccc(-c2cc(/C=C3\C(=O)Nc4ccc(Cl)cc43)[nH]n2)cc1 | COLO 205 colon | growth | 37

* * *

System: NCI-H322M lung
Experiment: NCI-60 one-dose screen, 48 h
Conditions: 10 µM unless noted
This is part of a sample that, as a whole, favours compounds with a hit. Of some 83,000 tested, about 20% had one in any assay. Activity calls are given as the source filed them. How the source made its calls: active means growth percent below 10; inactive means the rest.
Classes used: active, inactive

COMPOUND | LABEL CLASS
CCCCCCCCCCCCN1CCCC(C)C1 (stereo unspecified) | inactive
c1ccc(Sc2ncnc3ccccc23)cc1 | inactive
CCC(=O)OCc1cccc(OC)c1 | inactive
CCCCCCCCSC1=CC(=O)C(OC)=C(OC)C1=O | inactive
COc1ccc(C(=O)COc2ccc(/C=C3\Oc4ccc(Cl)cc4C3=O)cc2)cc1 | inactive
O=C(CO[N+](=O)[O-])Nc1ccc(C(=O)/C=C/c2ccc(Cl)cc2)cc1 | inactive
Cc1nn(-c2ccccc2)c2nc(C)n(-c3ccc(Br)cc3)c(=O)c12 | inactive
COc1cc(OC)c(/C=C/c2cc[n+](C)c3ccccc23)c(OC)c1 | active
COc1cccc(-c2nc3sccn3c2-c2ccnc(NCCCNS(=O)(=O)c3ccccc3)c2)c1 | inactive
CCN(CC)CCCC(C)N/C(=C1\C(=O)NC(=O)\C1=C(/NC(C)CCCN(CC)CC)c1cccc(OC)c1)c1cccc(OC)c1 (stereo unspecified) | active
CC[n+]1ccc2c(c1)C(=O)c1nccc3c1c-2nc1ccccc13 | active

* * *

Tested on: SF-268 CNS
Assay: NCI-60 one-dose screen, 48 h
Settings: 10 µM unless noted
Compounds without any hit were thinned out: in the full panel of roughly 83,000, 20% have a hit. Calls of active or inactive are those of the source. Rule for the calls: active = growth percent below 10; inactive = the rest.
Classes used: active, inactive

COMPOUND | LABEL CLASS
COc1ccc(S(=O)(=O)NCCNc2nccc(-c3c(-c4cccc([N+](=O)[O-])c4)nc4sccn34)n2)cc1 | inactive
Cc1ccc(NC(=O)c2sc3nc4c(cc3c2N)C(=O)CCC4)cc1C | inactive
Oc1cccc(Nc2nccc(-c3ccc4ccccc4c3)n2)c1 | inactive
N=S(=O)(NC(=O)c1ccc(Cl)cc1Cl)c1ccc(Br)s1 (stereo not given) | inactive
CN1CCN(Cc2ccc(NC(=O)c3cncc(C#Cc4cncc5nccnc45)c3)cc2C(F)(F)F)CC1 | inactive
OC(c1cc(-c2ccccc2)nc2ccc(Cl)cc12)C1CCCCN1 (stereo not given) | inactive
Cc1cc2cc3cc(C)c(N(C)C)cc3[n+](C)c2cc1N(C)C | inactive
CN(C)CC(=O)Nc1ccc(Cn2nnc3c2C(=O)c2nnn(Cc4ccc(NC(=O)CN(C)C)cc4)c2C3=O)cc1 | active
COc1cc(OC)c(/C=C/c2cc[n+](C)c3ccccc23)c(OC)c1 | inactive
CC1(C)OCC2OC3(C(=O)O)OC(C)(C)OC3C2O1 (stereo not given) | inactive

* * *

System: HCT-15 colon
Assay: NCI-60 one-dose screen, 48 h (100 = growth as untreated, 0 = no growth, -100 = all killed)
Details: 10 µM unless noted
Method: Growth inhibition of the HCT-15 human tumor cell line is measured as a screen for anti-cancer activity. Cells are grown in 96 well plates and exposed to the test compound for 48 hours. Compounds are tested at a single concentration, which is 10^-5 M for most compounds. The reported endpoint is percent growth (GI% or GIPRCNT), where numbers from 0 - 100% represent growth inhibition, and numbers from -100% - 0 represent cell death. For example, a value of 40 represents 60% growth inhibition. […]
The panel holds about 83,000 compounds, 20% with a hit somewhere; the sample as a whole holds those more often. The source made the active and inactive calls. How the source made its calls: active means growth percent below 10; inactive means the rest.

SMI | growth
Cc1ccc(-c2nc(/C=N/Nc3cc(C)nc4ccc(Br)cc34)c(C)o2)cc1 | -83.7% (active)
C/C(=C(/c1ccc(O)cc1)c1ccc(OCCN2CCCC2)cc1)c1ccccc1 | 34.6% (inactive)
N#Cc1ccc(NC(=O)Nc2ccc(Cc3ccc(NC(=O)Nc4ccc(C#N)cc4)cc3)cc2)cc1 | 25.9% (inactive)
COc1cccc(-c2cn3c(ccc4ccccc43)n2)c1 | 21.9% (inactive)
COc1ccc(/C(=C/c2ccc3ccccc3c2)c2nn[nH]n2)cc1OC | 31.1% (inactive)
COC(=S)SCN(CSC(=S)OC)c1ccc(Cl)cc1 | 86.3% (inactive)
COc1ccc(Cl)cc1Nc1nc(C(F)(F)F)ccc1C(=O)N/N=C/c1cccnc1 | 29.1% (inactive)
O=C(CN1CCN(c2cc3c(cc2F)c(=O)c(C(=O)O)cn3C2CC2)CC1)Nc1nc(-c2ccccc2)cs1 | 82.4% (inactive)
C/C(Cc1ccc(Cl)cc1)=C(\c1ccc(OCCN2CCCCCC2)cc1)c1ccc(OC(=O)C2CCCCC2)cc1 | 39% (inactive)
O=C(O)c1ccc(=O)[nH]n1 | 101% (inactive)

Source: PubChem BioAssay (NCI)
